# Test system: Danio rerio larvae (5 dpf)
# Assay Text: difference in excitability vs DMSO (percentage points); higher = more excitable than DMSO
# Conditions: 10 µM; exposure time 6 h
Counter-ions that a name gives are not always drawn.
Measurement Kind: difference in excitability
Simply state the number, no unit and no words.

Value sought: difference in excitability, system Danio rerio larvae (5 dpf), item CC(=O)NCCCS(=O)(=O)O [Acamprosate (calcium salt)] . Result: 5.62

The reported difference in excitability value, Danio rerio larvae (5 dpf), for "Cc1nc(Nc2ncc(C(=O)Nc3c(C)cccc3Cl)s2)cc(N2CCN(CCO)CC2)n1" reads 11.4

// returns difference in excitability for Nc1nc2[nH]cc(CCc3ccc(C(=O)N[C@@H](CCC(=O)O)C(=O)O)cc3)c2c(=O)[nH]1 [Pemetrexed (sodium salt hydrate)] with Danio rerio larvae (5 dpf); value = 7.7

Param item: CC1=C(CC(=O)O)c2cc(F)ccc2/C1=C\c1ccc([S+](C)[O-])cc1 (stereo not drawn) ; param system: Danio rerio larvae (5 dpf); output difference in excitability: 6.96

The observed difference in excitability for "C[C@H](Cn1cnc2c(N)ncnc21)OCP(=O)(O)O" when tested with Danio rerio larvae (5 dpf) stands at -6.21

Response field difference in excitability (Danio rerio larvae (5 dpf)) for item "COc1cc2c(cc1Cc1cccc(Cl)c1F)c(=O)c(C(=O)O)cn2[C@H](CO)C(C)C" : 4.89

Readout difference in excitability for Cn1c(=O)c2[nH]cnc2n(C)c1=O [Aminophylline] , test system Danio rerio larvae (5 dpf), was 4.39

The recorded difference in excitability with Danio rerio larvae (5 dpf) for "CNC(=O)c1cnn(-c2nc(N)c3ncn([C@@H]4O[C@H](CO)[C@@H](O)[C@H]4O)c3n2)c1" was -3.36

Param item: COc1cccc2c1C(=O)c1c(O)c3c(c(O)c1C2=O)C[C@@](O)(C(C)=O)C[C@@H]3O[C@H]1C[C@H](N)[C@H](O)[C@H](C)O1 [Daunorubicin (hydrochloride)] ; param system: Danio rerio larvae (5 dpf); output difference in excitability: 19.8

Fill in: Danio rerio larvae (5 dpf) difference in excitability for "O=C(O)CCCCCCCC(=O)O" = 1.68

Entry CN(C)CCOC(=O)C(c1ccccc1)C1(O)CCCC1 (stereo not drawn) [Cyclopentolate (hydrochloride)] ; assay system Danio rerio larvae (5 dpf); difference in excitability recorded at -10.4

Readout difference in excitability for CC[C@@H]1C(=O)OC[C@@H]1Cc1cncn1C [(+)-Pilocarpine (hydrochloride)] , test system Danio rerio larvae (5 dpf), was 9.24

Tested on Danio rerio larvae (5 dpf): "OCCN1CCN(CCCN2c3ccccc3Sc3ccc(Cl)cc32)CC1" . Observed difference in excitability: 18.9

Record CCCc1nn(C)c2c(=O)[nH]c(-c3cc(S(=O)(=O)N4CCN(C)CC4)ccc3OCC)nc12 [Sildenafil Citrate] has Danio rerio larvae (5 dpf) difference in excitability equal to 4.08

Value sought: difference in excitability, system Danio rerio larvae (5 dpf), item CC12CC3CC(C)(C1)CC(N)(C3)C2 [Memantine (hydrochloride)] . Result: 4.15

difference in excitability for Danio rerio larvae (5 dpf) with input CC(C)(O/N=C(\C(=O)N[C@@H]1C(=O)N2C(C(=O)[O-])=C(C[n+]3ccccc3)CS[C@H]12)c1csc(N)n1)C(=O)O [Ceftazidime (hydrate)] equals -0.0444

Bench note, Danio rerio larvae (5 dpf): entry CN1CCC[C@H]1c1cccnc1 (racemic) [(±)-Nicotine] , its difference in excitability = 9.04

Record C[N+]1(C)CCC(OC(=O)C(O)(c2ccccc2)C2CCCC2)C1 (stereo not drawn) [Glycopyrrolate] ; system Danio rerio larvae (5 dpf); difference in excitability = -0.597

Noted difference in excitability for Clc1ccc2nsnc2c1NC1=NCCN1 [Tizanidine (hydrochloride)] , tested on Danio rerio larvae (5 dpf): 1.85

Record CC1OC2(CS1)CN1CCC2CC1 (stereo not drawn) [Cevimeline (hydrochloride)] has Danio rerio larvae (5 dpf) difference in excitability equal to -6.36

Danio rerio larvae (5 dpf) assay, compound C[C@H]1O[C@H](O[C@H]2[C@H](O)[C@@H](O)[C@@H](O[C@H]3[C@H](O)[C@@H](O)C(O)O[C@@H]3CO)O[C@@H]2CO)[C@H](O)[C@@H](O)[C@@H]1N[C@H]1C=C(CO)[C@@H](O)[C@H](O)[C@H]1O (stereo partly drawn) , recorded difference in excitability = 11

# CNS(=O)(=O)CCc1ccc2[nH]cc(C3CCN(C)CC3)c2c1 [Naratriptan (hydrochloride)] with Danio rerio larvae (5 dpf): difference in excitability is 8.93

Log: Danio rerio larvae (5 dpf), compound N=C(N)NC(=O)c1nc(Cl)c(N)nc1N [Amiloride (hydrochloride) (hydrate)] , difference in excitability = 10.2

difference in excitability value, target or system Danio rerio larvae (5 dpf), for CN(CCOc1ccc(CC2SC(=O)NC2=O)cc1)c1ccccn1 (stereo not drawn) [Rosiglitazone (maleate)] : 10.7

Observed difference in excitability on Danio rerio larvae (5 dpf), entry Clc1cccc(Cl)c1NC1=NCCN1 [Clonidine (hydrochloride)] , equals 9.22

Bench note, Danio rerio larvae (5 dpf): entry CCc1c(Cl)c(O)c(Cl)c(O)c1C(=O)O[C@H]1[C@H](O)[C@H](OC)[C@H](OCC2=CC=CC[C@H](O)C(C)=C[C@H](CC)[C@@H](O[C@@H]3OC(C)(C)C(OC(=O)C(C)C)[C@H](O)[C@@H]3O)C(C)=CC(C)=CC[C@@H]([C@@H](C)O)OC2=O)O[C@@H]1C (stereo partly drawn) , its difference in excitability = 1.12

Value (difference in excitability, Danio rerio larvae (5 dpf)) for record CC(O)(P(=O)(O)O)P(=O)(O)O [Etidronate (sodium salt)] = 5.12

The value of difference in excitability recorded for COc1ccccc1OCC(O)CN1CCN(CC(=O)Nc2c(C)cccc2C)CC1 (stereo not drawn) [Ranolazine (hydrochloride)] when tested on Danio rerio larvae (5 dpf) reads 14.6

Field difference in excitability (system: Danio rerio larvae (5 dpf)) for entry COC(=O)C1=C(C)NC(C)=C(C(=O)OC(C)C)C1c1cccc2nonc12 (stereo not drawn) = 11.7

Assay Danio rerio larvae (5 dpf), sample CC(=O)OCC[N+](C)(C)C [Acetylcholine (chloride)] , difference in excitability read: 5.65

Sample NCCCC(O)(P(=O)(O)O)P(=O)(O)O [Alendronate (sodium hydrate)] , system: Danio rerio larvae (5 dpf). Its difference in excitability is -4.92

Summary: COC(=O)C1=C(C)NC(C)=C(C(=O)OCC(C)C)C1c1ccccc1[N+](=O)[O-] (stereo not drawn) , Danio rerio larvae (5 dpf), difference in excitability = 7.56

Value (difference in excitability, Danio rerio larvae (5 dpf)) for record CCCCNC(=O)NS(=O)(=O)c1ccc(C)cc1 [Tolbutamide] = 1.04
